Taken from PubChem BioAssay AID2057.

Target: Induced myeloid leukemia cell differentiation protein Mcl-1 (Homo sapiens) (UniProt Q07820)
Sequence (Q07820 whole entry, looked up): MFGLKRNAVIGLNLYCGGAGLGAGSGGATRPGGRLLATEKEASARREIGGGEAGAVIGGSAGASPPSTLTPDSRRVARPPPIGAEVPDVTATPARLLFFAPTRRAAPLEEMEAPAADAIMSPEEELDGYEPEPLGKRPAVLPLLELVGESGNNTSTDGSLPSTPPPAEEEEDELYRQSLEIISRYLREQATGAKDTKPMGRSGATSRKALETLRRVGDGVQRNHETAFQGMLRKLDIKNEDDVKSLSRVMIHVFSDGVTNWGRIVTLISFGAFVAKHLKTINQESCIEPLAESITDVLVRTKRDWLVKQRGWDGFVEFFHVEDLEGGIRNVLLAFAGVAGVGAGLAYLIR
Test: MCL1-BIM peptide interaction disruptors – biochemical, fluorescence polarization, primary screen (AID 2057);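 note: 0% = DMSO wells and 100% = unlabeled Bim-BH3 peptide control; higher means more loss of mP so more displacement of Bim peptide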
Settings: GST-MCL1 / FITC-Bim-BH3 fluorescence polarization; at 10.9 µM
Screen size: about 320,000 compounds; about 2,100 (0.66%) were called active.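 Rule for the calls: active = inhibition above the mean inhibition of all tested compounds plus 3 SD, set per campaign (cut at about 40% in these data); inactive = the rest.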 What follows is part of a selection rich in actives, with near analogues and random picks from the rest.
// classify into 1 (yes) (active), 0 (no) (inactive)

Illustrative cases are given below, each with its answer.
COc1ccc(Cl)cc1NC(=O)CCS(=O)(=O)c1cc2c(cc1C)NC(=O)CO2 :: 0 (no)
O=C(CC1N=C2c3ccccc3N=C(SCc3ccccc3Cl)N2C1=O)NCc1ccco1 (stereo unspecified) :: 0 (no)
COc1ccc(Cl)cc1NC(=O)CCS(=O)(=O)c1ccc(Br)cc1 :: 1 (yes)
Cc1ccc(NS(=O)(=O)c2ccc(F)cc2)nc1 :: 0 (no)
c1ccc(CSc2nnc(-c3ccco3)c(-c3ccco3)n2)cc1 :: 1 (yes)
O=C(OCc1cc(Cl)ccc1OC(F)F)c1cccnc1 :: 0 (no)
O=[N+]([O-])c1ccc(F)cc1Oc1nc(-c2cccnc2)nc2ccccc12 :: 0 (no)
COc1ccc2nc(SCc3ccccc3)nc(C)c2c1 :: 0 (no)

Prompt: Dear colleague, could you share the recorded outcome for CN(C)/C=C1/Nc2ccccc2C1=O when you have a moment?
Response: 0 (no)

Prompt: Dear colleague, could you share the recorded outcome for N#CC1=C(N)C(C#N)(C#N)[C@H](c2ccsc2)[C@H]2COCC=C12 when you have a moment?
Response: 0 (no)

Prompt: Dear colleague, could you share the recorded outcome for Cc1nnc(NC(=O)/C=C/c2ccco2)s1 when you have a moment?
Response: 1 (yes)
